# targetOrSystem: T1, Human GPA33 on GPA33+ colorectal cancer cell lines (Colo 205, LS 174T, SW 1222) (human, UniProt Q99795 22-319)
# T1 construct: Endogenous GPA33 on human colorectal cancer cell lines; also called surface human GPA33; GPA33+ tumor cell lines
# T1 sequence: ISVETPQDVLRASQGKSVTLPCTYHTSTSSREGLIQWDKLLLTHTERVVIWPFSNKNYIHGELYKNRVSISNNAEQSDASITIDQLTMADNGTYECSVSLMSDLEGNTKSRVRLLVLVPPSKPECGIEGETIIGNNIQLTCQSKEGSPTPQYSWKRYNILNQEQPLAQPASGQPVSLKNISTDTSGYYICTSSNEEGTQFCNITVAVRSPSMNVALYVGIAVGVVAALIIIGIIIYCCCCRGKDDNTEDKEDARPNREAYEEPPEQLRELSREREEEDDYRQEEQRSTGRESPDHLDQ
# methodSummary: cell binding to LS174T Luc cells; IgG format
EC50 overview
Number only, in µg/mL; omit the unit.

Example entries and their recorded answers appear below.
>  <binder>
G3A_VK3+VH1 (antibody, IgG1, V domains shown) VH: EVQLVESGGGLVKPGGSLRLSCAASGFAFSTYDMSWVRQAPGKGLEWVSTISSGGSYTYYADSVKGRFTISRDNAKNSLYLQMNSLRAEDTAVYYCAPTTVVPFAYWGQGTLVTVSA VL: DIQMTQSPSSLSTSVGDRVTITCKASQNVRTVVAWYQQKPGKAPKTLIYLASNRHSGVPSRFSGSGSGTEFTLTISNLQPEDFATYYCLQHWSYPLTFGSGTKLEVK

>  <measurementUnits>
µg/mL

>  <measuredResult>
0.642

$$$$
>  <binder>
Humanized A33 antibody with variable heavy chain VH1 and variable light chain VK4 (antibody, IgG1, V domains shown, Mouse A33 was humanized as IgG1 and tested in IgG format; also called VH1/VK4; huA33 IgG1) VH: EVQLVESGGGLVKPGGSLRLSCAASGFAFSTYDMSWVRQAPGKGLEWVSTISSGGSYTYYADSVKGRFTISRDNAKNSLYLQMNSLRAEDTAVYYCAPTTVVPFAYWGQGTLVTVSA VL: DIQMTQSPSSLSASVGDRVTITCKASQNVRTVVAWYQQKPGKAPKTLIYLASNRHTGVPSRFSGSGSGTEFTLTISNLQPEDFATYYCLQHWSYPLTFGSGTKLEVK

>  <measurementUnits>
µg/mL

>  <measuredResult>
0.503

$$$$

Q: Name the reported EC50 value associated with the binder G3A_chimeric (antibody, V domains shown) VH: EVKLVESGGGLVKPGGSLKLSCAASGFAFSTYDMSWVRQTPEKRLEWVATISSGGSYTYYLDSVKGRFTISRDSARNTLYLQMSSLRSEDTALYYCAPTTVVPFAYWGQGTLVTVSA VL: DIVMTQSQKFMSTSVGDRVSITCKASQNVRTVVAWYQQKPGQSPKTLIYLASNRHTGVPDRFTGSGSGTDFTLTISNVQSEDLADYFCLQHWSYPLTFGSGTKLEVK
A: 0.248
